test system: M. mycetomatis strain mm55; settings: m. mycetomatis hyphae, 96 h, 2 µM
Structures can show the parent of a compound that is named as a salt. The whole screen tested about 5,300 compounds, of which about 130 (2.5%) showed an effect of 50% or more. For the sample, strong results were picked, then their nearest neighbours and some compounds at random.
Please respond with reported % viability for every item in the list.
Please make sure the unit comes right after the number.

c1ccc(CC(c2ccccc2)N2CCCCC2)cc1 (stereo not drawn) [ONC0000060, 112diphenylethylpiperidine]: 45.07%
O=C(Nc1ccccc1F)N[C@H]1N=C(c2ccccc2)c2ccccc2NC1=O [ONC0000966, rsv604]: 70.36%
C=CCN1CC[C@@]2(C)c3cc(O)ccc3C[C@H]1[C@H]2C [ONC0000854, skf10047]: 56.88%
Oc1ccc2c3c1O[C@H]1[C@@H](O)CC[C@@]4(O)[C@@H](C2)N(CC2CCC2)CC[C@]314 [ONC0002017, nalbuphinehcl]: 86.82%
Cc1[nH]c2ccc(O)cc2c1CCN [ONC0000021, 2methyl5hydroxytryptamine]: 80.31%
CC(C)CC(N)C1(c2ccc(Cl)cc2)CCC1 (stereo not drawn) [ONC0002665, bts54505]: 62.54%
CC(=O)O[C@H]1CC[C@@]2(C)C(=CCC3C2CC[C@]2(C)C(=O)CCC32)C1 (stereo partly drawn) [ONC0003269, prasterone acetate]: 44.2%
Ic1cncc(OC[C@@H]2CCN2)c1 [ONC0001838, 5iodoa85380]: 120.9%
COc1ccc(C(=O)c2c(C)n(CCN3CCOCC3)c3ccccc23)cc1 [ONC0001936, pravadoline]: 72.97%
COc1cc2cc(c1Cl)N(C)C(=O)C[C@H](OC(=O)C(C)C)[C@]1(C)O[C@H]1[C@H](C)[C@@H]1C[C@@](O)(NC(=O)O1)[C@H](OC)/C=C/C=C(\C)C2 [ONC0000769, ansamitocin p3]: 44.45%

For each of the compounds below, state % viability.
1. COC(=O)/C=C/C(=O)N[C@@H]1CC[C@@]2(O)[C@H]3Cc4ccc(O)c5c4[C@@]2(CCN3CC2CC2)[C@H]1O5 [ONC0001459, betafunaltrexamine]
2. CN(C(=O)/C=C/c1ccoc1)[C@@H]1CC[C@@]2(O)[C@H]3Cc4ccc(O)c5c4[C@@]2(CCN3CC2CC2)[C@H]1O5 [ONC0001145, nalfurafine hydrochloride]
3. COC(=O)CC[C@@H]1N=C(c2ccccn2)c2cc(Br)ccc2-n2c(C)cnc21 [ONC0001123, remimazolam benzenesulfonate]
4. Oc1ccc2c3c1O[C@H]1c4[nH]c5c(c4C[C@@]4(O)[C@@H](C2)N(CC2CC2)CC[C@]314)C[C@@]1(O)[C@H]2Cc3ccc(O)c4c3[C@@]1(CCN2CC1CC1)[C@H]5O4 [ONC0002653, norbinaltorphiminedihydrochloride]
5. Cc1cccc(C)c1N=C1NCCCS1 [ONC0000628, xylazine]

# output
1. 48.02%
2. 84.21%
3. 82.85%
4. 66%
5. 103.4%

For each of the compounds below, state % viability.
1. CC(=O)O[C@H]1CC[C@@]2(C)C(=CC(=O)[C@@H]3[C@@H]2CC[C@]2(C)C(=O)CC[C@@H]32)C1 [ONC0002730, 7oxodehydroepiandrosterone acetate]
2. Cc1ccc2c(c1)[C@]13CCCC[C@@H]1[C@H](C2)N(C)CC3 [ONC0001964, dimemorfan]
3. CC(=O)NCCCOc1ccc(C(=O)N2CCC(N3C(=O)CCc4ccccc43)CC2)cc1 [ONC0002419, fuscoside]
4. COC(=O)C1=C(C)NC(C)=C(C(=O)OCCCN2CCC(c3ccccc3)(c3ccccc3)CC2)[C@@H]1c1cccc([N+](=O)[O-])c1 [ONC0000198, dexniguldipine]
5. COc1ccc(C(=O)c2c(C)n(CCN3CCOCC3)c3cc(I)ccc23)cc1 [ONC0003455, am630 iodopravadoline]
6. NC(=S)N/N=C/c1coc2ccccc2c1=O [ONC0001578, fpa124]
7. Cc1ncc(OC[C@@]2(c3cccc(F)c3)C[C@H]2C(=O)Nc2ccc(F)cn2)c(C)n1 [ONC0001232, lemborexant]

# output
["95.04%", "96.79%", "92.96%", "76.6%", "49.32%", "55.38%", "126.3%"]

For each of the compounds below, state % viability.
1. CC(=O)[C@H]1CC[C@H]2[C@@H]3CC[C@@H]4C[C@H](O)CC[C@]4(C)[C@H]3CC[C@]12C [ONC0001671, allopregnanolone]
2. OCC(O)[C@H]1O[C@@H]2O[C@H](C(Cl)(Cl)Cl)O[C@@H]2[C@H]1O (stereo partly drawn) [ONC0004285, chloralose]

# output
["102.1%", "88.6%"]
